For each record, write down the corresponding h-5HTT pIC50.
target: 5HT-Transporter (Homo sapiens, UniProt P31645); construct: Human platelet membranes (Oceanix Biosciences Corporation, Hanover, Md., USA) were thawed; tissue Oceanix Biosciences Corporation, Hanover, Md., USA; host or cells: human platelet membranes; experiment: Binding experiment for the 5HT-transporter ([3H]paroxetine, human platelet membranes); details: [3H]paroxetine 0.5 nM
Sequence (P31645 whole entry): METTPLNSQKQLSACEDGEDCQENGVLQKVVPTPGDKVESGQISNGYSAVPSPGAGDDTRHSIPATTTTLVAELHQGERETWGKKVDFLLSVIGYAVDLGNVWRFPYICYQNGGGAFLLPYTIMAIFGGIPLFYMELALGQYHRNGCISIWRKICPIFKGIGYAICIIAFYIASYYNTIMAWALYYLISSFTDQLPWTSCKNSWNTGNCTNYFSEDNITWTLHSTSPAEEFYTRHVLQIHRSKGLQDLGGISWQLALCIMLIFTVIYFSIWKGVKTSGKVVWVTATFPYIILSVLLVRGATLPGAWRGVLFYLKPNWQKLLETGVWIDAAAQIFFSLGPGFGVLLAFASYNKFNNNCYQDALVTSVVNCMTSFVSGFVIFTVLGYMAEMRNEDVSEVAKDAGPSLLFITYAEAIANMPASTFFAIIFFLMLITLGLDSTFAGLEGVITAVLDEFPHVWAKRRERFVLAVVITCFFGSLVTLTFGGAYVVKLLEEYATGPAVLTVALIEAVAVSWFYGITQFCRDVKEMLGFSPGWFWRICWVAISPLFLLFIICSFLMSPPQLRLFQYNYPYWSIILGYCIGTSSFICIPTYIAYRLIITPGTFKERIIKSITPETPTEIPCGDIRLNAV
The response must contain the number and no unit.

Entry C/C(=C\c1ccccc1)CN1CCC(Nc2nccn(-c3ccc(CNCC4CCCO4)cc3)c2=O)CC1 (stereo not shown) [1-146] , h-5HTT pIC50 reported as 6.3

Entry C/C(=C\c1ccccc1)CN1CCC(Nc2nccn(-c3ccc(CNC(=O)OC(C)(C)C)cc3)c2=O)CC1 [1-91] , h-5HTT pIC50 reported as 6.1

Entry C/C(=C\c1ccccc1)CN1CCC(Nc2nccn(-c3cccc(CNCCCN4CCCC4=O)c3)c2=O)CC1 [1-133] , h-5HTT pIC50 reported as 5.6

Entry C/C(=C\c1ccccc1)CN1CCC(Nc2nccn(-c3cccc(CNCCN(C)C)c3)c2=O)CC1 [1-106] , h-5HTT pIC50 reported as 6.1
